# Test system: CAF#2 (primary prostate cancer-associated fibroblasts of iCAF-like type)
# assay name: drug sensitivity score (DSS2, normalised partial AUC of dose-response, 72 h CellTiter-Glo viability) (DSS (dimensionless)); higher = more sensitive (stronger growth inhibition / cytotoxicity); extreme values may be limits of the assay
Would you mind labelling by drug sensitivity score? At or over 4 is met, under is not met.

molecule: CCC1=C[C@@H]2CN(C1)Cc1c([nH]c3ccccc13)[C@@](C(=O)OC)(c1cc3c(cc1OC)N(C)[C@H]1[C@@](O)(C(=O)OC)[C@H](OC(C)=O)[C@]4(CC)C=CCN5CC[C@]31[C@@H]54)C2 [Vinorelbine] (tested concentration range 1-10000 nM)
assigned class: met
//
molecule: Cc1ccc(-n2nc(C(C)(C)C)cc2NC(=O)Nc2ccc(OCCN3CCOCC3)c3ccccc23)cc1 [Doramapimod] (tested concentration range 1-10000 nM)
assigned class: not met
//
molecule: Cc1cccc(-c2nn3c(c2-c2ccnc4ccc(C(N)=O)cc24)CCC3)n1 [Galunisertib] (tested concentration range 0.1-1000 nM)
assigned class: not met
//
molecule: O=C(c1cccc(Cl)c1F)N1CCN(Cc2cccc(Nc3nccs3)n2)CC1 [MK-8745] (tested concentration range 1-10000 nM)
assigned class: met
//
molecule: Cn1cc(C2=C(c3cn(C4CCN(Cc5ccccn5)CC4)c4ccccc34)C(=O)NC2=O)c2ccccc21 [Enzastaurin] (tested concentration range 1-10000 nM)
assigned class: not met

====

# System: CAF#5 (primary prostate cancer-associated fibroblasts of myCAF-like type)
# assay name: drug sensitivity score (DSS2, normalised partial AUC of dose-response, 72 h CellTiter-Glo viability) (DSS (dimensionless)); higher = more sensitive (stronger growth inhibition / cytotoxicity); extreme values may be limits of the assay
Below, each of the molecules is paired with its reported drug sensitivity score value.

molecule: CN1CCc2c(c3ccccc3n2Cc2ccc(C(=O)NO)cc2)C1 [Tubastatin A] (tested concentration range 1-10000 nM)
measured on: CAF#5
drug sensitivity score: 0

molecule: CCN(CC)CCOc1ccc(C(=C(Cl)c2ccccc2)c2ccccc2)cc1 [Clomifene] (tested concentration range 1-10000 nM)
measured on: CAF#5
drug sensitivity score: 3.7

molecule: Cc1cc(Nc2ncnc3ccc(NC4=NC(C)(C)CO4)cc23)ccc1Oc1ccn2ncnc2c1 [Tucatinib] (tested concentration range 0.2-2500 nM)
measured on: CAF#5
drug sensitivity score: 0

molecule: Cc1cc2c(F)c(Oc3ncnn4cc(OC[C@@H](C)O)c(C)c34)ccc2[nH]1 [Brivanib] (tested concentration range 0.1-1000 nM)
measured on: CAF#5
drug sensitivity score: 0

molecule: CC[C@@H]1C(=O)OC[C@@H]1Cc1cncn1C [Pilocarpine] (tested concentration range 4-40000 nM)
measured on: CAF#5
drug sensitivity score: 1.5

molecule: COc1cc([C@@H]2c3cc4c(cc3[C@@H](O[C@@H]3O[C@@H]5CO[C@@H](c6cccs6)O[C@H]5[C@H](O)[C@H]3O)[C@H]3COC(=O)[C@H]23)OCO4)cc(OC)c1O [Teniposide] (tested concentration range 1-10000 nM)
measured on: CAF#5
drug sensitivity score: 0

====

# System: CAF#2
# assay name: drug sensitivity score (DSS2, normalised partial AUC of dose-response, 72 h CellTiter-Glo viability) (DSS (dimensionless)); higher = more sensitive (stronger growth inhibition / cytotoxicity); extreme values may be limits of the assay

compound: CC(C)N(C[C@H]1O[C@@H](n2cnc3c(N)ncnc32)[C@H](O)[C@@H]1O)[C@H]1C[C@@H](CCc2nc3cc(C(C)(C)C)ccc3[nH]2)C1 [Pinometostat] (tested concentration range 0.1-1000 nM)
drug sensitivity score: 0

compound: O=C(O)C1(C(=O)O)CCC1.[NH2-].[NH2-].[Pt+2] [Carboplatin] (tested concentration range 10-100000 nM)
drug sensitivity score: 8.3

compound: O=C(c1ccc(C(=O)N2CCC(N3CCCC3)CC2)c(Nc2ccccc2)c1)N1CCC(N2CCCC2)CC1 [UNC1215] (tested concentration range 1-10000 nM)
drug sensitivity score: 0

compound: O=c1sn(-c2cccc3ccccc23)c(=O)n1Cc1ccccc1 [Tideglusib] (tested concentration range 0.3-3000 nM)
drug sensitivity score: 0.8

compound: CCN(CC)CCNC(=O)c1c(C)[nH]c(/C=C2\C(=O)Nc3ccc(-c4csc(-c5ccccc5)n4)cc32)c1C [Amcasertib] (tested concentration range 1-10000 nM)
drug sensitivity score: 2.3

Source listed as the supplement of paper PMC12592484.
